# measurement.target: Cytochrome P450 2D6 (Homo sapiens) (UniProt P10635)
# Sequence (P10635 whole entry, looked up): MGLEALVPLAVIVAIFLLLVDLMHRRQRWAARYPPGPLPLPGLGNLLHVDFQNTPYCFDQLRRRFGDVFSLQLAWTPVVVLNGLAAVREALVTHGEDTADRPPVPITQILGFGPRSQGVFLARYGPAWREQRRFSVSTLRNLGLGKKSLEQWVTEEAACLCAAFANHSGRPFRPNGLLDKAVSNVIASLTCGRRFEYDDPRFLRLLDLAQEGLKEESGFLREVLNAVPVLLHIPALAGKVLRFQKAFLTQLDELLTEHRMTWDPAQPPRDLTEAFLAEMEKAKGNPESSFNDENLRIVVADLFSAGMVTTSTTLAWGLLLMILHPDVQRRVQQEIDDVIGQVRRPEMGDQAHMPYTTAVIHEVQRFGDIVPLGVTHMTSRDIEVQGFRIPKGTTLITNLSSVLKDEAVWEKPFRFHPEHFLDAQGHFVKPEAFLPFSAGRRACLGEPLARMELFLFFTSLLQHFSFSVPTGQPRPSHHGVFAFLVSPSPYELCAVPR
# assay.explanation: Cytochrome panel assay with activity outcomes
# assay.conditions: recombinant CYP, pro-luciferin dealkylation, luminescence, p450-cyp2d6; series mostly up to 57.1 µM
# Method: The P450 gene superfamily is involved in the metabolism and clearance of xenobiotics. This assay used various human CYP P450 isozymes to measure the dealkylation of various pro-luciferin substrates to luciferin. The luciferin is then measured by luminescence after the addition of a luciferase detection reagent. […] Inhibitors and some substrates limit the production of luciferin, and decrease measured luminescence. […] 8, Detection, 1 sec, ViewLux luminescent read […]
In all, about 16,000 compounds went through this assay and about 2,600 (16%) were called active. Roughly 20% stayed inconclusive and do not appear here. Calls come from the whole dose curve; as a rule, active = well fitted curve in the direction sought with a large enough effect; inconclusive = small, poorly fitted or top-dose-only effect, or effect the other way; inactive = no such curve, though single readings can be large or run the other way. Shown is part of a subset that was picked to be rich in actives.
Labels: active, inactive

{"molecule": "CN(N=O)C(=O)N[C@H]1[C@@H](O)[C@H](O)[C@H](CO)O[C@@H]1O", "measurement.target": "Cytochrome P450 2D6 (Homo sapiens) (UniProt P10635)", "assigned.label": "inactive"}
{"molecule": "Cc1c(C(=O)c2ccc3ccccc3c2)c2cccc3c2n1[C@H](CN1CCOCC1)CO3", "measurement.target": "Cytochrome P450 2D6 (Homo sapiens) (UniProt P10635)", "assigned.label": "inactive"}
{"molecule": "C=C1C/C(=C\\C)C(=O)O[C@@H]2CCN3CC=C(COC(=O)[C@@]1(C)O)[C@H]23", "measurement.target": "Cytochrome P450 2D6 (Homo sapiens) (UniProt P10635)", "assigned.label": "inactive"}
{"molecule": "O=C1NCN(c2ccccc2)C12CCN(C[C@H]1COc3ccccc3O1)CC2", "measurement.target": "Cytochrome P450 2D6 (Homo sapiens) (UniProt P10635)", "assigned.label": "active"}
{"molecule": "c1ccc([C@H]2CNCc3ccccc32)cc1", "measurement.target": "Cytochrome P450 2D6 (Homo sapiens) (UniProt P10635)", "assigned.label": "active"}
{"molecule": "CC(=O)OC1N=C(c2ccccc2)c2cc(Br)ccc2N(C)C1=O (stereo unspecified)", "measurement.target": "Cytochrome P450 2D6 (Homo sapiens) (UniProt P10635)", "assigned.label": "inactive"}
{"molecule": "CC(=O)N1CC[N+](C)(C)CC1", "measurement.target": "Cytochrome P450 2D6 (Homo sapiens) (UniProt P10635)", "assigned.label": "inactive"}
{"molecule": "COc1cc([C@H]2c3cc4c(cc3[C@@H](O)[C@@H]3COC(=O)[C@H]23)OCO4)cc(OC)c1OC", "measurement.target": "Cytochrome P450 2D6 (Homo sapiens) (UniProt P10635)", "assigned.label": "inactive"}
{"molecule": "Clc1ccc(C(c2ccc(Cl)cc2)n2cc[n+](C[C@@H](OCc3ccc(Cl)cc3Cl)c3ccc(Cl)cc3Cl)c2)cc1", "measurement.target": "Cytochrome P450 2D6 (Homo sapiens) (UniProt P10635)", "assigned.label": "active"}
{"molecule": "CN1CCc2cc(O)cc3c2[C@H]1Cc1ccc(O)c(O)c1-3", "measurement.target": "Cytochrome P450 2D6 (Homo sapiens) (UniProt P10635)", "assigned.label": "inactive"}
{"molecule": "C[C@@]12CC[C@H]3[C@@H](CC=C4C[C@H](OS(=O)(=O)O)CC[C@]43C)[C@H]1CCC2=O", "measurement.target": "Cytochrome P450 2D6 (Homo sapiens) (UniProt P10635)", "assigned.label": "inactive"}
{"molecule": "CNC[C@H](O)c1ccc(O)c(OC)c1", "measurement.target": "Cytochrome P450 2D6 (Homo sapiens) (UniProt P10635)", "assigned.label": "inactive"}
{"molecule": "O=C(O)CC[N+](=O)[O-]", "measurement.target": "Cytochrome P450 2D6 (Homo sapiens) (UniProt P10635)", "assigned.label": "inactive"}
{"molecule": "N#C/C(=C\\c1ccc(O)c(O)c1)C(N)=S", "measurement.target": "Cytochrome P450 2D6 (Homo sapiens) (UniProt P10635)", "assigned.label": "inactive"}
{"molecule": "CN1C(=O)c2ccccc2Sc2ccc(C(=O)N3CCC4(CC3)OCCO4)cc21", "measurement.target": "Cytochrome P450 2D6 (Homo sapiens) (UniProt P10635)", "assigned.label": "inactive"}
{"molecule": "CCCc1cc2c(n1Cc1ccc(C)cc1)C(C)C1CN(C(=O)c3ccccc3)C(C)(C(=O)OC)C21 (stereo unspecified)", "measurement.target": "Cytochrome P450 2D6 (Homo sapiens) (UniProt P10635)", "assigned.label": "inactive"}
{"molecule": "CCCN(CCC)C(=O)Cc1c(-c2ccc(Cl)cc2)nc2c(Cl)cc(Cl)cn12", "measurement.target": "Cytochrome P450 2D6 (Homo sapiens) (UniProt P10635)", "assigned.label": "inactive"}
{"molecule": "CCCc1cc2c(n1CCO)C(C)C1CN(C(=O)c3ccccc3)C(C)(C(=O)OC)C21 (stereo unspecified)", "measurement.target": "Cytochrome P450 2D6 (Homo sapiens) (UniProt P10635)", "assigned.label": "inactive"}
{"molecule": "CCCN(CCC)CCc1cccc2c1CC(=O)N2", "measurement.target": "Cytochrome P450 2D6 (Homo sapiens) (UniProt P10635)", "assigned.label": "active"}
{"molecule": "CC(=O)[C@@H]1CC[C@H]2[C@H]3CC[C@H]4C[C@@H](O)CC[C@]4(C)[C@@H]3CC[C@]12C", "measurement.target": "Cytochrome P450 2D6 (Homo sapiens) (UniProt P10635)", "assigned.label": "inactive"}
{"molecule": "O=c1cc(-c2ccc(O)cc2)oc2cc(O)cc(O)c12", "measurement.target": "Cytochrome P450 2D6 (Homo sapiens) (UniProt P10635)", "assigned.label": "inactive"}
{"molecule": "C=CCN1C(=O)c2ccccc2Sc2ccc(C(=O)N3CCC4(CC3)OCCO4)cc21", "measurement.target": "Cytochrome P450 2D6 (Homo sapiens) (UniProt P10635)", "assigned.label": "inactive"}
{"molecule": "CCN(CC)CCO[C@H]1CC[C@@]2(C)C(=CC[C@@H]3[C@H]2CC[C@]2(C)C(=O)CC[C@H]32)C1", "measurement.target": "Cytochrome P450 2D6 (Homo sapiens) (UniProt P10635)", "assigned.label": "active"}
{"molecule": "CCN1C[C@]2(C)CC[C@H](OC)[C@@]34[C@@H]2[C@H](OC(C)=O)[C@]2(OCO[C@@]25C[C@@H](OC)[C@@H]2C[C@@]3(O)[C@H]5[C@@H]2OC)[C@H]14", "measurement.target": "Cytochrome P450 2D6 (Homo sapiens) (UniProt P10635)", "assigned.label": "inactive"}
{"molecule": "CC(NCc1ccc(Cl)cc1)C(O)c1ccccc1 (stereo unspecified)", "measurement.target": "Cytochrome P450 2D6 (Homo sapiens) (UniProt P10635)", "assigned.label": "active"}
{"molecule": "CN1CCc2cc3c(cc2[C@@H]1O)OCO3", "measurement.target": "Cytochrome P450 2D6 (Homo sapiens) (UniProt P10635)", "assigned.label": "active"}
{"molecule": "NC(=O)c1cc(N2CC2)c([N+](=O)[O-])cc1[N+](=O)[O-]", "measurement.target": "Cytochrome P450 2D6 (Homo sapiens) (UniProt P10635)", "assigned.label": "inactive"}
{"molecule": "O=C(O)CP(=O)(O)c1ccc(Cl)cc1", "measurement.target": "Cytochrome P450 2D6 (Homo sapiens) (UniProt P10635)", "assigned.label": "inactive"}
{"molecule": "CCOC(C(=O)OCCCN(CC)CC)(c1ccccc1)c1ccccc1", "measurement.target": "Cytochrome P450 2D6 (Homo sapiens) (UniProt P10635)", "assigned.label": "active"}
{"molecule": "CCN1C[C@@]2(COC)[C@H]3[C@@H](OC)[C@H]4C1[C@@]3([C@H](OC)C[C@@H]2O)[C@H]1C[C@@]2(O)[C@@H](OC(=O)c3ccccc3)[C@@H]1[C@@]4(OC(C)=O)[C@H](O)[C@@H]2OC", "measurement.target": "Cytochrome P450 2D6 (Homo sapiens) (UniProt P10635)", "assigned.label": "inactive"}
{"molecule": "Ic1ccccc1CN[C@@H]1C2CCN(CC2)[C@H]1C(c1ccccc1)c1ccccc1", "measurement.target": "Cytochrome P450 2D6 (Homo sapiens) (UniProt P10635)", "assigned.label": "active"}
{"molecule": "CN(C)Cc1c[nH]c2ccccc12", "measurement.target": "Cytochrome P450 2D6 (Homo sapiens) (UniProt P10635)", "assigned.label": "active"}
{"molecule": "C/C(=N\\OC(=O)NC(C)C)c1sc(-c2ccc(Cl)cc2)nc1C", "measurement.target": "Cytochrome P450 2D6 (Homo sapiens) (UniProt P10635)", "assigned.label": "inactive"}
{"molecule": "C[C@@H]1Cc2cc3c(cc2C(c2ccc(N)cc2)=NN1)OCO3", "measurement.target": "Cytochrome P450 2D6 (Homo sapiens) (UniProt P10635)", "assigned.label": "active"}
{"molecule": "CCCc1cc2c(n1Cc1cccc(Cl)c1)C(C)C1CN(C(=O)c3ccccc3)C(C)(C(=O)OC)C21 (stereo unspecified)", "measurement.target": "Cytochrome P450 2D6 (Homo sapiens) (UniProt P10635)", "assigned.label": "active"}
{"molecule": "CC1=C2[C@@H]3OC(=O)[C@@H](C)[C@@H]3CC[C@]2(C)C=CC1=O", "measurement.target": "Cytochrome P450 2D6 (Homo sapiens) (UniProt P10635)", "assigned.label": "inactive"}
{"molecule": "COc1cc(CN2CCN(C(=O)COc3ccccc3)CC2)cc(OC)c1OC", "measurement.target": "Cytochrome P450 2D6 (Homo sapiens) (UniProt P10635)", "assigned.label": "inactive"}
{"molecule": "CS(=N)(=O)CC[C@@H](N)C(=O)O (stereo partly specified)", "measurement.target": "Cytochrome P450 2D6 (Homo sapiens) (UniProt P10635)", "assigned.label": "inactive"}
{"molecule": "O=C(COc1ccc2ccccc2c1)N1CCN(CC2CC3C=CC2C3)CC1 (stereo unspecified)", "measurement.target": "Cytochrome P450 2D6 (Homo sapiens) (UniProt P10635)", "assigned.label": "active"}
{"molecule": "NC[C@H](CC(=O)O)c1ccc(Cl)cc1", "measurement.target": "Cytochrome P450 2D6 (Homo sapiens) (UniProt P10635)", "assigned.label": "active"}
{"molecule": "NC[C@@H](CC(=O)O)c1ccc(Cl)cc1", "measurement.target": "Cytochrome P450 2D6 (Homo sapiens) (UniProt P10635)", "assigned.label": "inactive"}
